Attribution: the supplement of paper PMC9428881

Provide the reported background-corrected fluorescence of each item.
- METHOD SUMMARY: background-corrected fluorescence of 3'-dye-labeled ssDNA relative to brightest sequence (3'-GCGCG) (fraction); higher = brighter dye fluorescence (less quenching)
- MEASUREMENT SETUP: dye: Cy3 (3' terminal)
One number for each entry.

Recorded background-corrected fluorescence, per entry:
{"CHAIN SEQUENCE": "TTTTTGCATGATCATGCTGATTTTTTTTTTTTTTTTCGAC [CAGCT]", "background-corrected fluorescence": 0.448}
{"CHAIN SEQUENCE": "TTTTTTCAGCATGAGCATCATTTTTTTTTTTTTTTGTCTG", "background-corrected fluorescence": 0.54}
{"CHAIN SEQUENCE": "TTTTTGCAGCAGCATCAGCATTTTTTTTTTTTTTTTTTGT [TGTTT]", "background-corrected fluorescence": 0.649}
{"CHAIN SEQUENCE": "TTTTTTGAGCATCATCAGCATTTTTTTTTTTTTTTCTGGT [TGGTC]", "background-corrected fluorescence": 0.653}
{"CHAIN SEQUENCE": "TTTTTTGAGCATGCTGCTGATTTTTTTTTTTTTTTCTAAC [CAATC]", "background-corrected fluorescence": 0.407}
{"CHAIN SEQUENCE": "TTTTTTCATGAGCATGATCATTTTTTTTTTTTTTTGCTCG", "background-corrected fluorescence": 0.517}

Quick batch: background-corrected fluorescence for everything below.
1. TTTTTTGAGCATGATGCTGATTTTTTTTTTTTTTTCTCAC [CACTC]
2. TTTTTGCATGCTGATGCTCATTTTTTTTTTTTTTTTACAG [GACAT]
3. TTTTTGCATGCGCATGATCATTTTTTTTTTTTTTTTATCG [GCTAT]
4. TTTTTTGCTCATGCTGCGCATTTTTTTTTTTTTTTAGAAT [TAAGA]

Reply |
0.391
0.499
0.515
0.59
